Listing of recorded CC50 by entry.
- Tested on: CEM-SS
- TEST METHOD NOTES: Cytotoxicity against human CEM-SS cells assessed as reduction in cell viability by XTT assay
- Format: cell-based
- RUN CONDITIONS: cem-ss

Illustrative cases are given below, each with its answer.
[
  {
    "CHEMICAL SMILES": "Cc1cc(O)c(=O)c(O)cc1-c1ccc(C(F)(F)F)cc1",
    "RESULT TYPE": "CC50",
    "RESULT": "2200 to 6700 nM"
  },
  {
    "CHEMICAL SMILES": "Cc1cc(O)c(=O)c(O)cc1-c1cccc2ccccc12",
    "RESULT TYPE": "CC50",
    "RESULT": "3300 to 6700 nM"
  },
  {
    "CHEMICAL SMILES": "Cc1cc(O)c(=O)c(O)cc1C(=O)c1ccc(-c2ccccc2)cc1",
    "RESULT TYPE": "CC50",
    "RESULT": "100 to 830 nM"
  }
]

Moving on to another compound below.
Memo: Cc1cc(O)c(=O)c(O)cc1C(=O)C1CCCCC1 , reported CC50: 2700 to 7000 nM
